Origin of values: patent US9969775B2

IC50 values for the compounds below.
Biological target: hCGRP receptor (CALCRL:RAMP1) (Homo sapiens, UniProt O60894+Q16602)
Construct: host or cells: GeneBLAzer CALCRL:RAMP1-CRE-bla Freestyle 293F
Sequence (Q16602 23-461): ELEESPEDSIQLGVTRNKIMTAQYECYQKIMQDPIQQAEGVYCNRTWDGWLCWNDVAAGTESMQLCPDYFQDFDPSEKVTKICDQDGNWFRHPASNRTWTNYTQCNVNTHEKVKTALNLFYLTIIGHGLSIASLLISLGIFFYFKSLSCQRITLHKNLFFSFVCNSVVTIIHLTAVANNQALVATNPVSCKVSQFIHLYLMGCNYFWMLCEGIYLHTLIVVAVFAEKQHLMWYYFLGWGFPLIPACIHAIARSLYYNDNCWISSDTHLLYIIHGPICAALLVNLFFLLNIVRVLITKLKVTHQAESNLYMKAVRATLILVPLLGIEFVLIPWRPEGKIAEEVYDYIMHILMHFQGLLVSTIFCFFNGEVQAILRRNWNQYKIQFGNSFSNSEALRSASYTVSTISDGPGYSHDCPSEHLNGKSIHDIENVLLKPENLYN
Sequence (O60894 27-148): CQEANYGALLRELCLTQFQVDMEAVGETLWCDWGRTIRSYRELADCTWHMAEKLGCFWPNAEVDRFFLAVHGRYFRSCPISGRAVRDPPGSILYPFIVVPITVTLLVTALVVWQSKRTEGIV
Assay: CGRP receptor antagonist activity measured by cAMP assay (HTRF)
Format: cell-based
Details: GeneBLAzer CALCRL:RAMP1-CRE-bla Freestyle 293F cells; agonist human α-CGRP; 30 minutes; read-out: hCGRP-R IC50 Ave
Numbered stars: 1 amine (or outer) side, 2 acyl side, 3 side chain; on linkers, the order of the positions; unused ones are H or OH. Bridge positions count the residues as written; N and C are the ends. Square brackets hold non-standard residues; d marks the D form. Peptide text beside a SMILES is read from it. * marks the point of attachment. Phe(3-CH2NH2) = O=C([C@H](Cc1cccc(CN[*:3])c1)N[*:1])[*:2]; Phe(2-CONH2) = NC(=O)c1ccccc1C[C@H](N)C(=O)O; X5 = O=C([C@H](Cc1ccc(CO)cc1)N[*:1])[*:2]; Orn(iPr) = CC(C)NCCC[C@H](N)C(=O)O; 3Pal = N[C@@H](Cc1cccnc1)C(=O)O; Pyrrole2CO = O=C(c1ccc[nH]1)*; Picolinoyl = O=C(c1ccccn1)*; ΔPro = O=C(O)[C@@H]1C=CCN1; X1 = O=C(c1ncccc1F)*
Dear colleague, please return just the value in pM, with no unit written.

Example results:
CC(C)[C@@H]1NC(=O)[C@H](CC(=O)O)NC(=O)[C@H](CCCNC(=N)N)NC(=O)[C@@H](NC(=O)[C@H](Cc2ccc(O)cc2)NC(=O)[C@H](NC(=O)c2ccc[nH]2)C(C)C)CSSC[C@@H](C(=O)N[C@@H](Cc2cccnc2)C(N)=O)NC(=O)[C@H](Cc2ccccc2)NC(=O)[C@@H]2CCCN2C(=O)CNC1=O [Compound 49] (Pyrrole2CO-[dV]YCRDVGPFC[3Pal]-NH2; disulfide 3-10) = 190
CC(C)NCCC[C@@H]1NC(=O)[C@@H](NC(=O)[C@H](Cc2ccc(O)cc2)NC(=O)[C@H](NC(=O)c2ccccn2)C(C)C)CSSC[C@@H](C(=O)N[C@@H](Cc2cccnc2)C(N)=O)NC(=O)[C@H](Cc2ccc(CO)cc2)NC(=O)[C@@H]2CCCN2C(=O)CNC(=O)[C@H](C(C)C)NC(=O)[C@H](CC(=O)O)NC1=O [Compound 55] (Picolinoyl-[dV]YC[Orn(iPr)]DVGP[X5]C[3Pal]-NH2; disulfide 3-10) = 180

Okay, now this compound:
IC50 lookup needed for CC(C)[C@@H]1NC(=O)[C@H](CC(=O)O)NC(=O)[C@H](CCCNC(=N)N)NC(=O)[C@@H](NC(=O)[C@H](Cc2ccccc2C(N)=O)NC(=O)[C@H](NC(=O)c2ncccc2F)C(C)C)CSSC[C@@H](C(=O)N[C@@H](Cc2cccnc2)C(N)=O)NC(=O)[C@H](Cc2cccc(CN)c2)NC(=O)[C@@H]2C=CCN2C(=O)CNC1=O [Compound 32] (X1-[dV][Phe(2-CONH2)]CRDVG[ΔPro][Phe(3-CH2NH2)]C[3Pal]-NH2; disulfide 3-10) , thanks. 120

* * *

Target: hCGRP receptor (CALCRL:RAMP1) (Homo sapiens, UniProt O60894+Q16602)
Construct: host or cells: GeneBLAzer CALCRL:RAMP1-CRE-bla Freestyle 293F
Assay: CGRP receptor antagonist activity measured by cAMP assay (HTRF)
Format: cell-based
Details: % MPE: percent of the maximal possible effect; agonist human α-CGRP; read-out: hCGRP-R Efficacy Antag (%) Ave
Numbered stars: 1 amine (or outer) side, 2 acyl side, 3 side chain; on linkers, the order of the positions; unused ones are H or OH. Bridge positions count the residues as written; N and C are the ends. Square brackets hold non-standard residues; d marks the D form. Peptide text beside a SMILES is read from it. * marks the point of attachment. Phe(3-CH2NH2) = O=C([C@H](Cc1cccc(CN[*:3])c1)N[*:1])[*:2]; Phe(3-CONH2) = NC(=O)c1cccc(C[C@H](N)C(=O)O)c1; Benzoyl(4-F) = O=C(c1ccc(F)cc1)*; Oxazole2carbonyl = O=C(c1ncco1)*; 3Pal = N[C@@H](Cc1cccnc1)C(=O)O; ΔPro = O=C(O)[C@@H]1C=CCN1; Dap = NC[C@H](N)C(=O)O
// values below are reported Emax
Respond with the bare value in %.

CC(C)[C@@H]1NC(=O)[C@H](CC(=O)O)NC(=O)[C@H](CCCNC(=N)N)NC(=O)[C@@H](NC(=O)[C@H](Cc2ccc(O)cc2)NC(=O)[C@H](NC(=O)c2ncco2)C(C)C)CSSC[C@@H](C(=O)N[C@@H](Cc2cccnc2)C(N)=O)NC(=O)[C@H](Cc2cccnc2)NC(=O)[C@@H]2CCCN2C(=O)CNC1=O [Compound 11] (Oxazole2carbonyl-[dV]YCRDVGP[3Pal]C[3Pal]-NH2; disulfide 3-10) = 100

So what's the measured Emax for this one? CC(C)[C@@H]1NC(=O)[C@H](CC(=O)O)NC(=O)[C@H](CCCNC(=N)N)NC(=O)[C@@H](NC(=O)[C@H](Cc2cccc(CN)c2)NC(=O)[C@H](NC(=O)c2ccc(F)cc2)C(C)C)CSSC[C@@H](C(=O)N[C@@H](Cc2cccnc2)C(N)=O)NC(=O)[C@H](Cc2ccc(O)cc2)NC(=O)[C@@H]2C=CCN2C(=O)CNC1=O [Compound 22] ({Benzoyl(4-F)}-[dV][Phe(3-CH2NH2)]CRDVG[ΔPro]YC[3Pal]-NH2; disulfide 3-10) 100

Which Emax is reported for this compound? CC(C)[C@@H]1NC(=O)[C@H](CC(=O)O)NC(=O)[C@H](CN)NC(=O)[C@@H](NC(=O)[C@H](Cc2ccc(O)cc2)NC(=O)[C@H](NC(=O)c2ccc(F)cc2)C(C)C)CSSC[C@@H](C(=O)N[C@@H](Cc2cccnc2)C(N)=O)NC(=O)[C@H](Cc2cccc(C(N)=O)c2)NC(=O)[C@@H]2CCCN2C(=O)CNC1=O [Compound 6] ({Benzoyl(4-F)}-[dV]YC[Dap]DVGP[Phe(3-CONH2)]C[3Pal]-NH2; disulfide 3-10) 100

* * *

Target: hAM2 receptor (CALCRL:RAMP3) (Homo sapiens, UniProt O60896+Q16602)
Construct: expressed in transfected cells; host or cells: GeneBLAzer CALCRL:RAMP3-CRE-bla Freestyle 293F
Sequence (Q16602 23-461): as the sequence (Q16602 23-461) above
Sequence (O60896 24-148): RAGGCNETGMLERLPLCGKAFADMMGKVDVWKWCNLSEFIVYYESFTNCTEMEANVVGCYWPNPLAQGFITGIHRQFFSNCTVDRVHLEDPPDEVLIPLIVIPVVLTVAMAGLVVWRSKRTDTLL
Assay: AM2 receptor antagonist activity measured by cAMP assay (HTRF)
Assay type: cell-based
Conditions: selectivity ratio for hCGRP over hAM2, calculated from the IC50 values
Numbered stars: 1 amine (or outer) side, 2 acyl side, 3 side chain; on linkers, the order of the positions; unused ones are H or OH. Bridge positions count the residues as written; N and C are the ends. Square brackets hold non-standard residues; d marks the D form. Peptide text beside a SMILES is read from it. * marks the point of attachment. Phe(2-CONH2) = NC(=O)c1ccccc1C[C@H](N)C(=O)O; X5 = O=C([C@H](Cc1ccc(CO)cc1)N[*:1])[*:2]; Phe(3-CN) = N#Cc1cccc(C[C@H](N)C(=O)O)c1; Imidazole4carbonyl = O=C(c1cnc[nH]1)*; Picolinoyl(5-F) = O=C(c1ccc(F)cn1)*; Orn(iPr) = CC(C)NCCC[C@H](N)C(=O)O; Benzoyl(4-F) = O=C(c1ccc(F)cc1)*; 3Pal = N[C@@H](Cc1cccnc1)C(=O)O; ΔPro = O=C(O)[C@@H]1C=CCN1
Entries and their selectivity ratio CGRP/AM2
Give only the figure.

Recorded results for 2 molecules are shown here.
CC(C)[C@@H]1NC(=O)[C@H](CC(=O)O)NC(=O)[C@H](CCCNC(=N)N)NC(=O)[C@@H](NC(=O)[C@H](Cc2ccc(O)cc2)NC(=O)[C@H](NC(=O)c2ccc(F)cc2)C(C)C)CSSC[C@@H](C(=O)N[C@@H](Cc2cccnc2)C(N)=O)NC(=O)[C@H](Cc2cccc(C#N)c2)NC(=O)[C@@H]2CCCN2C(=O)CNC1=O [Compound 21] ({Benzoyl(4-F)}-[dV]YCRDVGP[Phe(3-CN)]C[3Pal]-NH2; disulfide 3-10) = 258
CC(C)[C@@H]1NC(=O)[C@H](CC(=O)O)NC(=O)[C@H](CCCNC(=N)N)NC(=O)[C@@H](NC(=O)[C@H](Cc2ccc(O)cc2)NC(=O)[C@H](NC(=O)c2c[nH]cn2)C(C)C)CSSC[C@@H](C(=O)N[C@@H](Cc2cccnc2)C(N)=O)NC(=O)[C@H](Cc2ccccc2)NC(=O)[C@@H]2CCCN2C(=O)CNC1=O [Compound 47] (Imidazole4carbonyl-[dV]YCRDVGPFC[3Pal]-NH2; disulfide 3-10) = 1460

May I ask what selectivity ratio CGRP/AM2 has been recorded for CC(C)NCCC[C@@H]1NC(=O)[C@@H](NC(=O)[C@H](Cc2ccccc2C(N)=O)NC(=O)[C@H](NC(=O)c2ccc(F)cn2)C(C)C)CSSC[C@@H](C(=O)N[C@@H](Cc2cccnc2)C(N)=O)NC(=O)[C@H](Cc2ccc(CO)cc2)NC(=O)[C@@H]2C=CCN2C(=O)CNC(=O)[C@H](C(C)C)NC(=O)[C@H](CC(=O)O)NC1=O [Compound 63] ({Picolinoyl(5-F)}-[dV][Phe(2-CONH2)]C[Orn(iPr)]DVG[ΔPro][X5]C[3Pal]-NH2; disulfide 3-10) ? 848
